As shown below, each of these molecules has a reported electrical conductivity value.
measurement-setup: 368.15 K; 101.33 kPa; Liquid; Alternating current cell with electrodes
property-label: electrical conductivity (S/m)

>  <molecule>
CC(=O)[O-].CCn1cc[n+](C)c1 [1-ethyl-3-methylimidazolium acetate]

>  <units-of-measure>
S/m

>  <measurement>
3.11

$$$$
>  <molecule>
CCCCCC[n+]1ccn(C)c1.O=S(=O)([N-]S(=O)(=O)C(F)(F)F)C(F)(F)F

>  <units-of-measure>
S/m

>  <measurement>
1.58

$$$$
>  <molecule>
CCCCn1cc[n+](C)c1.O=S(=O)([N-]S(=O)(=O)C(F)(F)C(F)(F)F)C(F)(F)C(F)(F)F [1-butyl-3-methylimidazolium bis(perfluoroethylsulfonyl)imide]

>  <units-of-measure>
S/m

>  <measurement>
1.29

$$$$
>  <molecule>
CCCCCCCCn1cc[n+](C)c1.O=S(=O)([N-]S(=O)(=O)C(F)(F)F)C(F)(F)F

>  <units-of-measure>
S/m

>  <measurement>
1.11

$$$$

###

# reported electrical conductivity; entries follow
measurement-setup: 298.15 K; 101.33 kPa; Liquid; Alternating current cell with electrodes

>  <compound>
CCCCCCCCn1cc[n+](C)c1.O=S(=O)([N-]S(=O)(=O)C(F)(F)F)C(F)(F)F

>  <electrical conductivity / S/m>
0.131

$$$$
>  <compound>
CCCCn1cc[n+](C)c1.O=S(=O)([N-]S(=O)(=O)C(F)(F)C(F)(F)F)C(F)(F)C(F)(F)F [1-butyl-3-methylimidazolium bis(perfluoroethylsulfonyl)imide]

>  <electrical conductivity / S/m>
0.145

$$$$
>  <compound>
CC(=O)[O-].CCn1cc[n+](C)c1 [1-ethyl-3-methylimidazolium acetate]

>  <electrical conductivity / S/m>
0.278

$$$$
>  <compound>
CCCCCC[n+]1ccn(C)c1.O=S(=O)([N-]S(=O)(=O)C(F)(F)F)C(F)(F)F

>  <electrical conductivity / S/m>
0.218

$$$$

###

Entries and their electrical conductivity values follow.
measurement-setup: 318.15 K; 101.33 kPa; Liquid; Alternating current cell with electrodes

>  <compound>
CCCCCCCCn1cc[n+](C)c1.O=S(=O)([N-]S(=O)(=O)C(F)(F)F)C(F)(F)F

>  <units-of-measure>
S/m

>  <electrical conductivity>
0.298

$$$$
>  <compound>
CCCCCC[n+]1ccn(C)c1.O=S(=O)([N-]S(=O)(=O)C(F)(F)F)C(F)(F)F

>  <units-of-measure>
S/m

>  <electrical conductivity>
0.466

$$$$
>  <compound>
CCCCn1cc[n+](C)c1.O=S(=O)([N-]S(=O)(=O)C(F)(F)C(F)(F)F)C(F)(F)C(F)(F)F [1-butyl-3-methylimidazolium bis(perfluoroethylsulfonyl)imide]

>  <units-of-measure>
S/m

>  <electrical conductivity>
0.336

$$$$
>  <compound>
CC(=O)[O-].CCn1cc[n+](C)c1 [1-ethyl-3-methylimidazolium acetate]

>  <units-of-measure>
S/m

>  <electrical conductivity>
0.733

$$$$

###

measurement-setup: 348.15 K; 101.33 kPa; Liquid; Alternating current cell with electrodes
# electrical conductivity per entry
property-label: electrical conductivity (S/m)

>  <molecule>
CCCCCCCCn1cc[n+](C)c1.O=S(=O)([N-]S(=O)(=O)C(F)(F)F)C(F)(F)F

>  <units-of-measure>
S/m

>  <measurement>
0.72

$$$$
>  <molecule>
CC(=O)[O-].CCn1cc[n+](C)c1 [1-ethyl-3-methylimidazolium acetate]

>  <units-of-measure>
S/m

>  <measurement>
1.96

$$$$
>  <molecule>
CCCCn1cc[n+](C)c1.O=S(=O)([N-]S(=O)(=O)C(F)(F)C(F)(F)F)C(F)(F)C(F)(F)F [1-butyl-3-methylimidazolium bis(perfluoroethylsulfonyl)imide]

>  <units-of-measure>
S/m

>  <measurement>
0.831

$$$$
>  <molecule>
CCCCCC[n+]1ccn(C)c1.O=S(=O)([N-]S(=O)(=O)C(F)(F)F)C(F)(F)F

>  <units-of-measure>
S/m

>  <measurement>
1.05

$$$$

# credit: the NIST ThermoML archive (doi:10.1021/acs.jced.5b00285)
